Data origin: patent US5412098A

S. aureus 209P (IFO 12732): reported MIC for various compounds.
PROPERTY_LABEL: MIC (µg/mL)

Illustrative cases are given below, each with its answer.
COMPOUND	MIC, µg/mL
N[C@H]1CCN(c2nc3c(cc2F)c(=O)c(C(=O)O)cn3-c2csnn2)C1 [Compound 58]	1.56
Cc1nonc1-n1cc(C(=O)O)c(=O)c2cc(F)c(N3CC[C@H](N)C3)nc21 [Compound 81]	0.1
Cc1nsnc1-n1cc(C(=O)O)c(=O)c2cc(F)c(N3CC[C@H](N)C3)nc21.Cl [Compound 187]	0.2
Cc1c(F)c(N2CC[C@H](N)C2)cc2c1c(=O)c(C(=O)O)cn2-c1cnsn1 [Compound 162]	0.1

a = Cl.N[C@H]1CCN(c2nc3c(cc2F)c(=O)c(C(=O)O)cn3-c2cnsn2)C1 [Compound 18]
b = C[C@@H]1CN(c2nc3c(cc2F)c(=O)c(C(=O)O)cn3-c2cnsn2)C[C@@H]1N (single isomer, unassigned) [Compound 19]
c = N[C@H]1CCN(c2c(F)cc3c(=O)c(C(=O)O)cn(Cc4cnsn4)c3c2F)C1 [Compound 126]
Q: Highest MIC first, then in falling order down to the smallest. Please list each label once, in the requested order.
Result: c, a, b
(c: 0.39 µg/mL, a: 0.2 µg/mL, b: 0.1 µg/mL)

---

Assay: Recovery in urine after oral administration (disk method, Bacillus subtilis ATCC 6633)
Assay type: in vivo, male JCL-SD rats
Conditions: rat, 20 mg/kg, rats, 20 mg/10 ml/kg in 0.5% methylcellulose, fasted overnight, read-out: Excretion Rate, In Urine
PROPERTY_LABEL: dose excreted at 24 h (%)

A = Cl.N[C@H]1CCN(c2nc3c(cc2F)c(=O)c(C(=O)O)cn3-c2cnsn2)C1 [Compound 18]
B = C[C@@H]1CN(c2nc3c(cc2F)c(=O)c(C(=O)O)cn3-c2cnsn2)C[C@@H]1N (single isomer, unassigned) [Compound 19]
Q: Lab note: check whether A or B shows the higher recorded dose excreted at 24 h. Kindly give the label for the entry you pick.
Result: B
(B: 80.6%, A: 20%)
